- target desc: human GLP-1 receptor (human, UniProt P43220)
- assay: cell-based or functional assay
Where no end group is shown, it is not given here. [ ]: non-standard residue; d: D form. Aib = CC(C)(N)C(=O)O
property label: EC50 (nM), cAMP
Your answer is read as nM, so omit the unit and give the number.

binder	recorded value
H[Aib]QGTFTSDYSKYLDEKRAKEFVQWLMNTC (also: ring between residues marked, places not visible) [oxyntomodulin derivative of SEQ ID NO. 25]	1.9

# query: EC50 (nM), cAMP of entry H[Aib]QGTFTSDYAKYLDEKRAKEFVQWLMNTC (also: ring marking not visible) [oxyntomodulin derivative of SEQ ID NO. 33] 2.2
